# target_of_assay: Nuclear hormone receptor DAF-12 (Heterodera glycines)
# assay_text: hgDAF-12 reporter activation EC50 – cell-based, luminescence, HEK293, dose response (AID 743059);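 further: agonist potency for compounds that raise hgDAF-12 reporter luminescence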
# condition: HEK293 hgDAF-12 reporter, luciferase luminescence
Calls of active or inactive are those of the source.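 How the source made its calls: active means EC50 at or below 10 µM; inactive means EC50 above 10 µM.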
Exercise: for every item that follows, state its recorded EC50.

Task item: # lookup: Nuclear hormone receptor DAF-12 (Heterodera glycines) EC50, key = Nc1nn(-c2cccc(F)n2)cc1-c1ccccc1
Reply: > 67.5 µM (inactive)

Task item: # lookup: Nuclear hormone receptor DAF-12 (Heterodera glycines) EC50, key = Cc1ccc2nc(-c3ccccn3)oc2c1
Reply: > 67.6 µM (inactive)

Task item: # lookup: Nuclear hormone receptor DAF-12 (Heterodera glycines) EC50, key = O=c1[nH]c(=O)n(C2CC(O)C(CO)O2)cc1I (stereo not drawn)
Reply: > 67.6 µM (inactive)

Task item: # lookup: Nuclear hormone receptor DAF-12 (Heterodera glycines) EC50, key = Cc1ccc2c(c1)N=C(c1ccccc1)CC(C(Cl)Cl)=N2
Reply: > 67.5 µM (inactive)

Task item: # lookup: Nuclear hormone receptor DAF-12 (Heterodera glycines) EC50, key = COCCNC(=O)/C(C#N)=C/c1cc(C)n(-c2ccc(C)cc2)c1C
Reply: > 67.5 µM (inactive)

Task item: # lookup: Nuclear hormone receptor DAF-12 (Heterodera glycines) EC50, key = COc1ccc2oc(C(=O)Nc3nccs3)c(C)c2c1
Reply: > 67.5 µM (inactive)

Task item: # lookup: Nuclear hormone receptor DAF-12 (Heterodera glycines) EC50, key = Clc1ccc(OCCSc2ncccn2)c(Br)c1
Reply: > 67.5 µM (inactive)

Task item: # lookup: Nuclear hormone receptor DAF-12 (Heterodera glycines) EC50, key = CN(C)c1ccc2c(=O)c3ccccc3oc2n1
Reply: > 67.6 µM (inactive)
